Every entry's value here was drawn from PubChem BioAssay.

# protocol-text: reduction of polyQ htt aggregates in cells – imaging, exon1htt(103Q)mCFP cells, high-content imaging, primary screen (AID 483);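 further: compound exposure lasted 3 days before fixation; percent of the per-plate median nuclei count of sample wells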
# protocol-conditions: exon1htt(103Q)mCFP cell line, aggregate imaging, at 2 µM; measured here: cell count, toxicity
property: nuclei count (%)
Numeric answer only, unit % assumed.

INSERT INTO measurements (molecule, val) VALUES
  ('Cc1cc(Cl)c(S(=O)(=O)N2CCN(c3ccc(F)cc3)CC2)cc1OCC(N)=O', 97.1),
  ('CC(NO)C(C)(C)NO (configuration not stated)', 101),
  ('c1nc(NCC2(N3CCOCC3)CCCCC2)c2ccsc2n1', 93),
  ('CCC(C)NC(=O)c1cc(-c2ccc(OC)cc2)on1 (configuration not stated)', 101),
  ('COc1ccc(N2CCN(CCNS(=O)(=O)c3cccc4nsnc34)CC2)cc1', 106);

Quick note, nuclei count for O=C1NC(=O)C(CC(=O)N(c2ccccc2)C2(C(=O)NC3CCCC3)CCCCC2)N1 (configuration not stated) landed at 83.3

According to the records, this molecule `COc1ccc(CN(C(=O)CN2C(=O)COc3ccccc32)C2CCCC2)c(OC)c1` displays nuclei count of 102

// nuclei count value for `Cc1cc(=O)oc2ccc(OCC(=O)N(Cc3ccc(F)cc3)Cc3ccco3)cc12` : 95.6

The molecule listed as `COCCn1c(Sc2nc(C)cs2)nc2c1c(=O)[nH]c(=O)n2C` has a reported nuclei count of 105

The molecule `COc1cccc(CN=CC2=C(O)CC(C)(C)CC2=O)c1OC` showed nuclei count equal to 99.6

Record `CC(C)n1nnnc1SCC(=O)Nc1ccccc1N1CCOCC1` . Reported nuclei count: 104

Lab book: nuclei count of `CCCCNC(=O)CN(C1CCCCC1)S(C)(=O)=O` noted as 99.8

Per the record, `Cc1ccc(-c2cn3cccnc3n2)cc1NC(=O)c1ccc(Br)o1` has nuclei count of 66.8

Measured nuclei count, O=C(NC(C(=O)c1ccccc1)n1ccc(=O)[nH]c1=O)c1ccccc1 (configuration not stated) : 104

// nuclei count lookup, molecule = COc1ccc(S(=O)(=O)N2CCCC2C(=O)Nc2ccc(O)cc2)cc1 (configuration not stated) , result: 110

For Cn1c(SCc2ccccc2)nnc1C1CCCNC1 (configuration not stated) the molecule record lists nuclei count as 100

Data point: `Cn1c(=O)c2c(nc(CN3CCN(c4ccccc4F)CC3)n2CCN2CCOCC2)n(C)c1=O` ; nuclei count = 114

Lab book: nuclei count of `Cc1ccc2c(c1)-c1c(cnn1CC(=O)Nc1ccccc1N1CCN(C)CC1)CO2` noted as 66.8

For `COc1ccccc1NC(=O)CSc1nnc(Cn2nnc(-c3ccccc3)n2)n1-c1ccccc1` the molecule record lists nuclei count as 104

Record summary for `O=C(c1ccco1)N1CCN(c2nc(C(F)(F)F)nc3c2nnn3Cc2ccccc2)CC1` : reported nuclei count = 87.1

Lab note: measured nuclei count of `CN(CC(=O)Nc1sccc1C#N)C1CCCCC1` was 7.1

nuclei count measured on `O=C(Cn1c(=O)n(Cc2ccc3c(c2)OCO3)c(=O)c2ccccc21)N1CCCc2ccccc21` = 87.9

====

# protocol-text: reduction of polyQ htt aggregates in cells – imaging, exon1htt(103Q)mCFP cells, high-content imaging, primary screen (AID 483);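 further: compound exposure lasted 3 days before fixation; percent of the per-plate median nuclei count of sample wells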
# protocol-conditions: exon1htt(103Q)mCFP cell line, aggregate imaging, at 2 µM; measured here: cell count, toxicity
For each record, check the reported nuclei count: if it is below 90% write criterion met, else write criterion not met.

Example results:
INSERT INTO measurements (compound, category) VALUES
  ('Nc1nonc1-n1nnc(C(=O)c2ccccc2)c1-c1ccccc1', 'criterion not met'),
  ('COc1ccc(C(=O)NCc2nc3ccccc3[nH]2)cc1OC', 'criterion met'),
  ('CC1N=C2c3ccccc3N=C(SCc3cc(=O)n4cc(Cl)ccc4n3)N2C1=O (stereo not drawn)', 'criterion not met'),
  ('CCOC(=O)c1oc2c(CN3CCN(C)CC3)c(O)ccc2c(=O)c1-c1ccccc1OC', 'criterion met'),
  ('Cc1cccc(-n2ncc3c(N)ncnc32)c1', 'criterion met');

Lab note: confirm whether the reported nuclei count for this compound is below 90%, equality not counting. compound: CCC(C(=O)NC(C)CCc1ccco1)n1nc(C)n2c(cc3occc32)c1=O (stereo not drawn)
criterion met

Problem: For the compound `CCSc1ccccc1C(=O)NCc1ccc(S(N)(=O)=O)cc1` , is nuclei count under 90%?
criterion not met

Hello, I'm reviewing records and need to know if nuclei count of `Cc1cc(C)n(-c2ccc(N3CCOCC3)nn2)n1` is below 90%. Could you check?
criterion not met

Would you kindly verify if nuclei count of CN1C(=O)c2oc3ccccc3c(=O)c2C1c1ccccn1 (stereo not drawn) is strictly less than 90%?
criterion not met

====

# protocol-text: TLR3 IRF3 reporter activation blockers – cell-based, poly I:C stimulus, luciferase, 10K MLSCN set, primary screen (AID 602277)
# protocol-conditions: HEK293-TLR3 RL24 IRF3 luciferase reporter, at 10 µM
Active and inactive are the calls of the source.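 The calls were made as follows: active = inhibition of the reporter signal at or above 50%; inactive = inhibition below 50%.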
Lab note: assign the record to one of yes (1) (active), no (0) (inactive)

Check out these entries, answers already filled in.
INSERT INTO assay_data (compound, category) VALUES
  ('Cc1cc2c(cc(C(=O)OCC(=O)NCc3cccs3)n2C(C)C)o1', 'yes (1)'),
  ('O=C(OCC(=O)c1cccs1)C1=COCCO1', 'no (0)'),
  ('CCOc1ccccc1OCCn1nnc2ccccc21', 'no (0)'),
  ('CC1Oc2ccccc2N(Cc2ccccc2Cl)C1=O (configuration not stated)', 'no (0)'),
  ('O=C(c1cn(-c2ccccc2)nc1-c1cccs1)N1CCN(c2ccccn2)CC1', 'no (0)'),
  ('Cc1cc(=O)oc(C)c1C(=O)O', 'no (0)'),
  ('CCOc1ccc2c(c1)n(CO)c(=S)n2CO', 'no (0)'),
  ('Cc1c(NC(=O)c2nn(C)c(=O)c3ccccc23)c(=O)n(-c2ccccc2)n1C', 'no (0)');

What is the recorded call for this compound in the test? C=CCOC(=O)CC(NC(=O)c1ccccc1)c1ccccc1 (configuration not stated)
yes (1)

Could you check what this test reported for Cc1ccc(N(C(=O)C2CCC(=O)N2)C2(C(=O)NC3CCCCC3)CCCCC2)cc1 (configuration not stated) ?
no (0)

Which result was noted for this compound in the test: O=C(NC1CCS(=O)(=O)C1)OC1CCCCC1 (configuration not stated)
no (0)

Fill in: this test's call for CC(=O)Oc1ccc(CCC(C)OC(C)=O)cc1 (configuration not stated) is ___
no (0)

====

molecules and their reported nuclei count
# protocol-text: reduction of polyQ htt aggregates in cells – imaging, exon1htt(103Q)mCFP cells, high-content imaging, primary screen (AID 483);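 further: compound exposure lasted 3 days before fixation; percent of the per-plate median nuclei count of sample wells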
# protocol-conditions: exon1htt(103Q)mCFP cell line, aggregate imaging, at 2 µM; measured here: cell count, toxicity
Write the number in % without appending the unit.

INSERT INTO assay_data (molecule, val) VALUES
  ('Cc1cc(NC(=O)CSc2nccn2-c2ccc(Cl)cc2)no1', 106),
  ('CCC1Cc2c(nc3c4c(nc(N5CCOCC5)c(C#N)c24)NC(C)=N3)O1 (stereo unspecified)', 92.3),
  ('Cc1nn(C(=O)c2ccccc2)c2c1C(=O)CC(C)(C)C2', 104),
  ('COc1ccc(/C=N/n2c(SC)nnc2-c2ccccc2)cc1C', 103),
  ('CCCC1CCC(C(=O)Nn2cnc3ccccc3c2=O)CC1 (stereo unspecified)', 86.9);

Notebook: `Cc1onc(-c2ccccc2Cl)c1C(=O)Nc1cnn(Cc2ccccc2)c1` , nuclei count read as 121

====

Here the recorded fluorescence slope is given for each entry.
# study-target: Voltage-gated potassium channel subunit beta-2 (Rattus norvegicus)
# protocol-text: inhibitors of rat Kvbeta2 reductase activity – biochemical, NADPH fluorescence, primary screen (AID 622);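 further: slope of raw intensity against log time taken from 70 to 1610 s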
# protocol-conditions: recombinant KvBeta, 4-cyanobenzaldehyde reduction, at 10 µM, stronger effect = higher value
Write the value as a bare number.

Solved cases below.
INSERT INTO assay_data (compound, study_target, property, val) VALUES
  ('O=C(CN1C(=O)COc2ccccc21)NCCN1CCc2ccccc2C1', 'Voltage-gated potassium channel subunit beta-2 (Rattus norvegicus)', 'fluorescence slope', -0.573),
  ('Cc1occc1C(=O)Nc1ccc(S(=O)(=O)N2CCN(C)CC2)cc1', 'Voltage-gated potassium channel subunit beta-2 (Rattus norvegicus)', 'fluorescence slope', -0.44),
  ('Cc1c(C(=O)NCc2ccoc2)oc2ccc3c(c12)C(=O)CC(C)(C)O3', 'Voltage-gated potassium channel subunit beta-2 (Rattus norvegicus)', 'fluorescence slope', -0.531),
  ('O=C(CSC1=NCCS1)NCc1ccco1', 'Voltage-gated potassium channel subunit beta-2 (Rattus norvegicus)', 'fluorescence slope', -0.268),
  ('COc1cc(CNc2ccc(N3CCOCC3)c(C(=O)O)c2)ccc1OCC(N)=O', 'Voltage-gated potassium channel subunit beta-2 (Rattus norvegicus)', 'fluorescence slope', -0.343);

Form field, fluorescence slope with Voltage-gated potassium channel subunit beta-2 (Rattus norvegicus), item `CC(=O)Nc1ccc(NS(=O)(=O)c2ccc(Cl)c(C(=O)O)c2)cc1` : -0.42

Observed fluorescence slope, Voltage-gated potassium channel subunit beta-2 (Rattus norvegicus), `COc1cccc(S(=O)(=O)Nc2cccnc2)c1` : -0.552

Observed fluorescence slope, Voltage-gated potassium channel subunit beta-2 (Rattus norvegicus), CC1=C(C(=O)OCCOC(C)C)C(c2cc3c(cc2Br)OCO3)C2=C(CCCC2=O)N1 (configuration not stated) : -0.485

Reported Voltage-gated potassium channel subunit beta-2 (Rattus norvegicus) fluorescence slope for item `COc1ccc(Br)cc1-c1noc(-c2ccccc2)n1` was -0.371

Measured on Voltage-gated potassium channel subunit beta-2 (Rattus norvegicus), `CCOC(=O)N1CCC(NC(=O)Cc2ccc(-n3c(=O)[nH]c4ccccc4c3=O)cc2)CC1` has a documented fluorescence slope of -0.527

Result for `N#Cc1c(N2CCCC2)nc(N)c2c(N)nc(N3CCCC3)cc12` , tested on Voltage-gated potassium channel subunit beta-2 (Rattus norvegicus), fluorescence slope: -0.0789

Reading of fluorescence slope for `Cc1cc(NC(=O)CCCC(=O)Nc2ccc(F)cc2)no1` with Voltage-gated potassium channel subunit beta-2 (Rattus norvegicus): -0.477

# lookup: `CN1CCN(c2nc(-c3ccncc3)nc3ccccc23)CC1` on Voltage-gated potassium channel subunit beta-2 (Rattus norvegicus), fluorescence slope = -0.41

The recorded fluorescence slope with Voltage-gated potassium channel subunit beta-2 (Rattus norvegicus) for `CCOC(=O)c1[nH]c(C)c(C(=O)Nc2ccccc2C)c1C` was -0.603

Measured fluorescence slope (Voltage-gated potassium channel subunit beta-2 (Rattus norvegicus)), entry `CN(C)/C=C(\C#N)c1nc2ccccc2[nH]1` : -0.532

Tested on Voltage-gated potassium channel subunit beta-2 (Rattus norvegicus): `Cc1cc(NS(=O)(=O)c2ccc(NC(=O)COc3ccc(Cl)cc3)cc2)no1` . Observed fluorescence slope: -0.292

Record CCOc1cc2[nH]c(=S)n(CC3CCCO3)c(=O)c2cc1OCC (configuration not stated) ; system Voltage-gated potassium channel subunit beta-2 (Rattus norvegicus); fluorescence slope = -0.491
